Assay: Oral bioavailability in Sprague-Dawley rat at 5 mg/kg measured up to 24 hrs by LC/MS/MS analysis
Assay type: ADME, organism-based
Settings: in vivo
Assay Metric: bioavailability (%)

As a guide, the following entries are already answered.
| Smiles Entry | Measure Unit | Recorded Number |
| --- | --- | --- |
| Cc1cnc(Nc2ccc(N3CCC(N(C)CCO)CC3)c(F)c2)nc1-c1cnn(C(C)C)c1 | % | 58 |
| Cc1cnc(Nc2ccc(N3CCC(N(C)CCCO)CC3)c(F)c2)nc1-c1cnn(C(C)C)c1 | % | 43 |

I. CCCCN(C)C1CCN(c2ccc(Nc3ncc(C)c(-c4cnn(C(C)C)c4)n3)cc2F)CC1
II. Cc1cnc(Nc2ccc(N3CCC(N(C)CCN4CCN(C)CC4)CC3)c(F)c2)nc1-c1cnn(C(C)C)c1
Ask | Pick one, I or II : lowest reported bioavailability. In your reply, give the label of the chosen option.
Reply | I
(I: 31%, II: 45%)

* * *

Assay: Half life in dog liver microsomes
Type: ADME, Canis lupus familiaris, Microsome
Assay Metric: half-life (h)
Provide only the numeric value, understood in h.

Ask | If you can, please state the reported half-life value of Cc1cnc(Nc2ccc(N3CCC(N(C)CCO)CC3)c(F)c2)nc1-c1cnn(C(C)C)c1 .
Reply | 3.12

* * *

Target: Receptor-type tyrosine-protein kinase FLT3 (Homo sapiens, UniProt P36888, D835Y)
Test: Inhibition of recombinant human FLT3 D835Y mutant (564 to end residues) using EAIYAAPFAKKK as substrate incubated for 40 mins in presence of [gamma33P]-ATP by scintillation counting based radiometry assay
Assay Metric: IC50 (nM)
The answer is to be given in nM; state only the numeric part.

Ask | Suppose we examine the molecule Cc1cnc(Nc2ccc(N3CCC(N(C)CCO)CC3)c(F)c2)nc1-c1cnn(C(C)C)c1 ; what IC50 value has been reported?
Reply | 4

* * *

Target: UniProt:P52333
Sequence (whole entry): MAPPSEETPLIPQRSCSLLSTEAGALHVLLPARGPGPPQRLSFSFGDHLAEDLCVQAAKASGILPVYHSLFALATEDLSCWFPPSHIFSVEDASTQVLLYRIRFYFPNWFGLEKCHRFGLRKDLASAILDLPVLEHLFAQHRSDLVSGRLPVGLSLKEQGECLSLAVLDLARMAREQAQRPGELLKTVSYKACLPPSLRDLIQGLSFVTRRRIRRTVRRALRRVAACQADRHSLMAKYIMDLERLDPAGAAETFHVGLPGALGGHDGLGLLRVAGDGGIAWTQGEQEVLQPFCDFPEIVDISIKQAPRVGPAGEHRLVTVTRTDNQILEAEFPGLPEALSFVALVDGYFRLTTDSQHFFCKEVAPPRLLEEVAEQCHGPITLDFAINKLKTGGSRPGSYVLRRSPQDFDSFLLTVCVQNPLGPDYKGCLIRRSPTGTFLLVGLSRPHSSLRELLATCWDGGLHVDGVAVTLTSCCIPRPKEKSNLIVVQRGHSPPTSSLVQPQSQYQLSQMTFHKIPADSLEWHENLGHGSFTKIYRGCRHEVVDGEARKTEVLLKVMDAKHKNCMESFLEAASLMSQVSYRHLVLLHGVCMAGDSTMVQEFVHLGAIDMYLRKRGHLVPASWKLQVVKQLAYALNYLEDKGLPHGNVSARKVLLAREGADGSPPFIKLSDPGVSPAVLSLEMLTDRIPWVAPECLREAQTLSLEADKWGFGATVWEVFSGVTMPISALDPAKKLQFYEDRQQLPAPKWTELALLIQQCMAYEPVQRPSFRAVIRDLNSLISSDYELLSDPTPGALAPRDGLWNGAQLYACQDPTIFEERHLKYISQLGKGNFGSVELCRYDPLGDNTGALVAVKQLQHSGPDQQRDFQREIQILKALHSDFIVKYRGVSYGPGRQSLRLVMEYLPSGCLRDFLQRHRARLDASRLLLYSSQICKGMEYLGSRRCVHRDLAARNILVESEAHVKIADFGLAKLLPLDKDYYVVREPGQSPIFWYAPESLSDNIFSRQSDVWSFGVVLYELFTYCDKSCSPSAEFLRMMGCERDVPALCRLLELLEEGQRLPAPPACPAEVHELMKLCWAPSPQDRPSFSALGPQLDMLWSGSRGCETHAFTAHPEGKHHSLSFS
Assay: Inhibition of human JAK3 (781 to end residues) assessed as residual activity at 100 nM using GGEEEEYFELVKK as substrate after 40 mins in presence of [gamma33P]-ATP by scintillation counting based radiometric assay relative to control
Assay Metric: Activity (%)

Example results:
| Compound | Measure Unit | Activity |
| --- | --- | --- |
| CCCCn1cc(-c2nc(Nc3ccc(N4CCN(C)CC4)c(F)c3)ncc2F)cn1 | % | 41 |
| Cc1cnc(Nc2ccc(N3CCC(N(C)CC4CCCO4)CC3)c(F)c2)nc1-c1cnn(C(C)C)c1 (centres undefined) | % | 36 |
| CCOCCN(C)C1CCN(c2ccc(Nc3ncc(C)c(-c4cnn(C(C)C)c4)n3)cc2F)CC1 | % | 28 |
| CC(C)n1cc(-c2nc(Nc3ccc(N4CCN(C5CCN(C)CC5)CC4)c(F)c3)ncc2F)cn1 | % | 44 |
| Cc1cnc(Nc2ccc(N3CCC(N(C)CCN4CCCCC4)CC3)c(F)c2)nc1-c1cnn(C(C)C)c1 | % | 38 |

1. CCCn1cc(-c2nc(Nc3ccc(N4CCN(CC)CC4)c(F)c3)ncc2F)cn1
2. CCCCN(C)C1CCN(c2ccc(Nc3ncc(C)c(-c4cnn(C(C)C)c4)n3)cc2F)CC1
3. CCN1CCN(c2ccc(Nc3ncc(F)c(-c4cnn(C(C)C)c4)n3)c(F)c2)CC1
Ask | List from greatest to least Activity. Write the labels, ordered according to the request.
Reply | 3, 1, 2

* * *

Molecular target: UniProt:P06239
Sequence (P06239 whole entry): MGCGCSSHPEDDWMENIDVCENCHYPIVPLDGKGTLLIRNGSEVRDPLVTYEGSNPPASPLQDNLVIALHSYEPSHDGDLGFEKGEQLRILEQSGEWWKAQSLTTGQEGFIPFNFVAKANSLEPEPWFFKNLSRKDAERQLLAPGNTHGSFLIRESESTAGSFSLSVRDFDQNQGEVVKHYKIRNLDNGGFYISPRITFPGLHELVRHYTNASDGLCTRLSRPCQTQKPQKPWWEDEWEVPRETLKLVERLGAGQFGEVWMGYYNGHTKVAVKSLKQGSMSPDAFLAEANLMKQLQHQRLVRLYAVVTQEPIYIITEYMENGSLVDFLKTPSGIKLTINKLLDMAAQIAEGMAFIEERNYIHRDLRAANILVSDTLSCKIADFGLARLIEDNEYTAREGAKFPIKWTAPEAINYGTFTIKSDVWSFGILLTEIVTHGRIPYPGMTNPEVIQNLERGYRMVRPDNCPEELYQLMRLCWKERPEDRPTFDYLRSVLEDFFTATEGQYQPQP
Assay: Inhibition of recombinant human full length human LCK using KVEKIGEGTYGVV as substrate incubated for 40 mins in presence of [gamma33P]-ATP by scintillation counting based radiometry assay
Assay Metric: pIC50
Interpret pIC50 as the negative base-10 log of the concentration measured in mol/L.

Ask | Name the recorded pIC50 for Cc1cnc(Nc2ccc(N3CCC(N(C)CCO)CC3)c(F)c2)nc1-c1cnn(C(C)C)c1 .
Reply | 7.57

* * *

Molecular target: UniProt:Q12809
Sequence (Q12809 whole entry): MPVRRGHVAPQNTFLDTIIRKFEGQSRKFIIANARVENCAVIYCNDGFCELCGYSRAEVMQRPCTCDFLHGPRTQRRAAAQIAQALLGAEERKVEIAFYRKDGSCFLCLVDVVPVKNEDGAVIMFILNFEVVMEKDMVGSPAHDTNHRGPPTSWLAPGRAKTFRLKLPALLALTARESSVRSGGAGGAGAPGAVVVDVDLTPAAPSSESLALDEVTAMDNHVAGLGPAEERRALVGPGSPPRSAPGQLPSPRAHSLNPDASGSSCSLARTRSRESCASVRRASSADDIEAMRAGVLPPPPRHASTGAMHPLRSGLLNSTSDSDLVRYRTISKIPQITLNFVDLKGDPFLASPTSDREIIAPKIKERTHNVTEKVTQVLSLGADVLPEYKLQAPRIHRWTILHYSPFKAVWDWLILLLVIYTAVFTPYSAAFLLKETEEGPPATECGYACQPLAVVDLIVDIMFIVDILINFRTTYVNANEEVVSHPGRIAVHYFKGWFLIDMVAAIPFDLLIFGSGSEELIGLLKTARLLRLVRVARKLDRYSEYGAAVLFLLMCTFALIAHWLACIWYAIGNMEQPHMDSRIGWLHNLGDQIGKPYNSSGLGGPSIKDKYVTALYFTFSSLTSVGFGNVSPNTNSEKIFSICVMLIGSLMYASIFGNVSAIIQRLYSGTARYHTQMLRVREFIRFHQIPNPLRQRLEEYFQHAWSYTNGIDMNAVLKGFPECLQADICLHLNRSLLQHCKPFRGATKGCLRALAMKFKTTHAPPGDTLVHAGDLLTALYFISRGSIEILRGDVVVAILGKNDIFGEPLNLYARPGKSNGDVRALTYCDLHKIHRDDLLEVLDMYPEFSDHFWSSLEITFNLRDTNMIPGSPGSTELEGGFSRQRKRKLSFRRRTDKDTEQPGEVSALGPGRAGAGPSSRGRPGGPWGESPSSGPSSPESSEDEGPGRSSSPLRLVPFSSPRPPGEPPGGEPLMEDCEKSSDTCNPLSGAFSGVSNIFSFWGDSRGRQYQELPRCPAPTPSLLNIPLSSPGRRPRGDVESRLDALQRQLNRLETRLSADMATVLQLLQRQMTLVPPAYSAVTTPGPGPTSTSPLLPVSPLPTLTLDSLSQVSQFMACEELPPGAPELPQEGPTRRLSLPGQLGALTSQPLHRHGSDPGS
Assay Metric: IC50 (µM)
Write the answer as a number in µM, unit excluded.

Ask | Identify the measured IC50 of Cc1cnc(Nc2ccc(N3CCC(N(C)CCO)CC3)c(F)c2)nc1-c1cnn(C(C)C)c1 for UniProt:Q12809.
Reply | 28

* * *

Molecular target: Cytochrome P450 2C19 (Homo sapiens, UniProt P33261)
Sequence (P33261 whole entry): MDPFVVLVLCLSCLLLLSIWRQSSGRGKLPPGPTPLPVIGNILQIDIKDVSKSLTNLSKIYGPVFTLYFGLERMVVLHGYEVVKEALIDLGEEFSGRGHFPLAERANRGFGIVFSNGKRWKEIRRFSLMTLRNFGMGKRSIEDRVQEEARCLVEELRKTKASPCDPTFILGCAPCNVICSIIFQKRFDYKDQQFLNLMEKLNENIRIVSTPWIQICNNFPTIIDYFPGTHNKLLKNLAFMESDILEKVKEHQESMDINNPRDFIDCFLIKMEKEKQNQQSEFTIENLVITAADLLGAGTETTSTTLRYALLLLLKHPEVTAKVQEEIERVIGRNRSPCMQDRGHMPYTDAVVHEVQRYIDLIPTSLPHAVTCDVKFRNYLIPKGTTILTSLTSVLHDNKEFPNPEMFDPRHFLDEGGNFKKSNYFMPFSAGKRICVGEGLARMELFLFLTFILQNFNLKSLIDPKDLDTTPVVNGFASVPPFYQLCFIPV
Assay Metric: pIC50
Formally, pIC50 is defined as -log10 of the concentration c, with c in mol/L.

Ask | Form field - read-out: pIC50; system: Cytochrome P450 2C19 (Homo sapiens, UniProt P33261); submitted item: Cc1cnc(Nc2ccc(N3CCC(N(C)CCO)CC3)c(F)c2)nc1-c1cnn(C(C)C)c1
Reply | 4.13

* * *

Target: UniProt P23458
Sequence (P23458 whole entry): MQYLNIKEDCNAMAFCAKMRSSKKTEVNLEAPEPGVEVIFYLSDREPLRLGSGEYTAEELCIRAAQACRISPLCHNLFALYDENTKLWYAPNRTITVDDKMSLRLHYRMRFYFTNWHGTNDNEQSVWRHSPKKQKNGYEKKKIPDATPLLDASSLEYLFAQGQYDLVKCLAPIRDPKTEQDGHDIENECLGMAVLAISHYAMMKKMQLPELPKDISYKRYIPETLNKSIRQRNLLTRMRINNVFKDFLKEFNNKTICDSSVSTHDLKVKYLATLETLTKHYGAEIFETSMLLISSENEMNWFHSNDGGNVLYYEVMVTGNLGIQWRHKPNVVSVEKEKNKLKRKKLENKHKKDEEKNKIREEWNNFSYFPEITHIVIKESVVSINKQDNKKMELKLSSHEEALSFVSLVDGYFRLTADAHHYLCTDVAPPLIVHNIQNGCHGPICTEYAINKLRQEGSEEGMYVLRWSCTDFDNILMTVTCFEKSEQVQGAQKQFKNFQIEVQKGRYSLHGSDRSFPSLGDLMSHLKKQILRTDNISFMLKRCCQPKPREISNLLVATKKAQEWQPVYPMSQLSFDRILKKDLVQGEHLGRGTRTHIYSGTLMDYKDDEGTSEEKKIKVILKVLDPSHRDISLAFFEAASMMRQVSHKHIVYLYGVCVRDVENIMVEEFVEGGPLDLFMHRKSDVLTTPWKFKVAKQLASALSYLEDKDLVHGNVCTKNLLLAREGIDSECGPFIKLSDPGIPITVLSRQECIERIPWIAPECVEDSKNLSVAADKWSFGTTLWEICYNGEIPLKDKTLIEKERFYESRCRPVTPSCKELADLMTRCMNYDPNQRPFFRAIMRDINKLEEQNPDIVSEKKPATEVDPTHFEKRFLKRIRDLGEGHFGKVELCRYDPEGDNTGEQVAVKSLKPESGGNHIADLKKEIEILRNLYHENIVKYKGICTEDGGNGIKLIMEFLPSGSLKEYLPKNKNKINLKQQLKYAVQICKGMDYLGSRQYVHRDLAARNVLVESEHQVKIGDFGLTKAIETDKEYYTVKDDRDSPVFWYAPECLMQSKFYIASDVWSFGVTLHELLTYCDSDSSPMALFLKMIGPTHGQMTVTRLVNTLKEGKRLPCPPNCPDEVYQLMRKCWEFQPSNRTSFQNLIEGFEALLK
Assay: Inhibition of human JAK1 (866 to end residues) GEEPLYWSFPAKK as substrate after 40 mins in presence of [gamma33P]-ATP by scintillation counting based radiometric assay
Assay Metric: IC50 (nM)

Look over these answered cases.
| Smiles Entry | Assay Target | Measure Unit | IC50 |
| --- | --- | --- | --- |
| CCCCN(C)C1CCN(c2ccc(Nc3ncc(C)c(-c4cnn(C(C)C)c4)n3)cc2F)CC1 | UniProt P23458 | nM | 76 |
| Cc1cnc(Nc2ccc(N3CCC(N(C)CCO)CC3)c(F)c2)nc1-c1cnn(C(C)C)c1 | UniProt P23458 | nM | 26 |

A. Cc1cnc(Nc2ccc(N3CCC(N(C)CCN4CCN(C)CC4)CC3)c(F)c2)nc1-c1cnn(C(C)C)c1
B. Cc1cnc(Nc2ccc(N3CCC(N(C)CCCO)CC3)c(F)c2)nc1-c1cnn(C(C)C)c1
Ask | Which of the two gives a bigger number for IC50: A or B ? To answer, give the label that identifies your chosen option.
Reply | A

* * *

Biological target: UniProt:P05181
Sequence (P05181 whole entry): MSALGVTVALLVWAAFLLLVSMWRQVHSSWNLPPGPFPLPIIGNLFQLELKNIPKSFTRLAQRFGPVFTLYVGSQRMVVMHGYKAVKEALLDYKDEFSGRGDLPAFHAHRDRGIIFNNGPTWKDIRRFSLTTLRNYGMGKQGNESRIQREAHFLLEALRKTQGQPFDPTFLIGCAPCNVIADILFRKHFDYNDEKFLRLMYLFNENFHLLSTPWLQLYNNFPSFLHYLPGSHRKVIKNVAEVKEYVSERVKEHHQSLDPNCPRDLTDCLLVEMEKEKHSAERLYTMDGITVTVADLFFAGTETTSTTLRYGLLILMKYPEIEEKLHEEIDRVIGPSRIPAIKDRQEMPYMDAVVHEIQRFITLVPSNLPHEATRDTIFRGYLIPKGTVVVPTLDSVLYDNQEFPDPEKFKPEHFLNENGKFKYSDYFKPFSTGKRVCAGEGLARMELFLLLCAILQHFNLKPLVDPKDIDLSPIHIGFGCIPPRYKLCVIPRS
pIC50: −log10 of the molar value.
Assay Metric: pIC50

Ask | Quick check: pIC50 of Cc1cnc(Nc2ccc(N3CCC(N(C)CCO)CC3)c(F)c2)nc1-c1cnn(C(C)C)c1 ?
Reply | < 4.00

* * *

Test: Tmax in Sprague-Dawley rat at 5 mg/kg, po measured up to 24 hrs by LC/MS/MS analysis
Assay type: ADME, organism-based
Conditions: Sprague-Dawley, in vivo, read-out: Tmax
Assay Metric: Tmax (h)

1. CCCCN(C)C1CCN(c2ccc(Nc3ncc(C)c(-c4cnn(C(C)C)c4)n3)cc2F)CC1
2. Cc1cnc(Nc2ccc(N3CCC(N(C)CCCO)CC3)c(F)c2)nc1-c1cnn(C(C)C)c1
Ask | Which has the smaller recorded Tmax, 1 or 2 ? Let me know the label of the one you choose.
Reply | 1
